Hello, the source for this data is paper PMC1807978, in case you need it.

Molecular target: 4cFH (4cZf-M.HpaII F35H) (synthetic zinc finger; prokaryotic Mtase) (UniProt P15446)
Assay: EMSA
QUANTITY NAME: Kd (nM)
Numbers only, in nM.

(Q) Find the recorded Kd belonging to TGGCCACGCCACTCCCCAGGCTCCATTCCAGGCCGGCGCAATGCTAGACTCGACGCGGCGCTCGTTGCCA (double strand) [Tb/c] and report it.
(A) 3

---

Molecular target: M.HpaII wild type (no zinc finger) (UniProt P15446)
Sequence: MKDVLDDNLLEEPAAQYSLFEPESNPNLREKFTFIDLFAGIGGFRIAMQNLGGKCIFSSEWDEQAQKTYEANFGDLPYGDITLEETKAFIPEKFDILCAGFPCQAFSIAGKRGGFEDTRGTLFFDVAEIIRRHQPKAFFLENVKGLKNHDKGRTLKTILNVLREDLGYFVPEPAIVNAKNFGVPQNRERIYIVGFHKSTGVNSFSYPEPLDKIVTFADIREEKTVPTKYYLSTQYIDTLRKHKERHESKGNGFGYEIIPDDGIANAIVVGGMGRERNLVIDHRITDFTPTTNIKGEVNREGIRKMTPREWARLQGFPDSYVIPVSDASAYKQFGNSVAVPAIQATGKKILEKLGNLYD
Assay: EMSA
QUANTITY NAME: Kd (nM)
Answers are plain numbers, in nM.

(Q) Find the recorded Kd belonging to TGGCCACGCCACTCCCCAGGCTCCATTCCAGGCCGGCGCAATGCTAGACTCGACGCGGCGCTCGTTGCCA (double strand) [Tb/c] and report it.
(A) 170
